Source listed as ChEMBL document CHEMBL3885861.

- Species on record: Rattus norvegicus
- assay-method-text: Open TG-GATES - Regimen: Single
- Type: toxicity, organism-based, Sprague-Dawley
- Parameters: regimen Single, gender Male, age 6 weeks
- measurement-setup: in vivo, po, 0 mg/kg, 24 h, tissue Blood, route gavage, dose level Control
Each entry below lists one item and its recorded Bas value.

compound | measurement-unit | Bas
CCOc1ccc(NC(=O)CC(C)O)cc1 (stereo not drawn) | % | 0.2
NNC(=O)c1ccncc1 | % | 0.4
CN(C)CCCN1c2ccccc2CCc2ccccc21 | % | 0.2
C[C@@H]1C[C@H]2[C@@H]3CCC4=CC(=O)C=C[C@]4(C)[C@@]3(F)[C@@H](O)C[C@]2(C)[C@@]1(O)C(=O)CO | % | 0
CC/C(=C(\c1ccccc1)c1ccc(OCCN(C)C)cc1)c1ccccc1 | % | 0
CN(C)CCN(Cc1cccs1)c1ccccn1 | % | 0
CCOC(=O)CCC(=O)O[C@H]1[C@H](O[C@@H]2[C@@H](C)[C@H](O[C@H]3C[C@@](C)(OC)[C@@H](O)[C@H](C)O3)[C@@H](C)C(=O)O[C@H](CC)[C@@](C)(O)[C@H](O)[C@@H](C)C(=O)[C@H](C)C[C@@]2(C)O)O[C@H](C)C[C@@H]1N(C)C [ERYTHROMYCIN ETHYLSUCCINATE] | % | 0
CC(C)OC(=O)C(C)(C)Oc1ccc(C(=O)c2ccc(Cl)cc2)cc1 [FENOFIBRATE] | % | 0.2
Cc1ccc(C)c(OCCCC(C)(C)C(=O)O)c1 | % | 0
CC1=C(/C=C/C(C)=C/C=C/C(C)=C/CO)C(C)(C)CCC1 | % | 0
COc1ccc2[nH]c([S+]([O-])Cc3ncc(C)c(OC)c3C)nc2c1 (stereo not drawn) | % | 0
CN1C(=O)CN=C(c2ccccc2)c2cc(Cl)ccc21 | % | 0
CN(C)CCCN1c2ccccc2CCc2ccc(Cl)cc21 | % | 0
O=C(CCCN1CCC(O)(c2ccc(Cl)cc2)CC1)c1ccc(F)cc1 | % | 0
COc1cc2c(c(OC)c1OC)-c1ccc(OC)c(=O)cc1[C@@H](NC(C)=O)CC2 | % | 0
CCCNC(=O)NS(=O)(=O)c1ccc(Cl)cc1 [CHLORPROPAMIDE] | % | 0.2
COC1=CC(=O)C[C@@H](C)[C@]12Oc1c(Cl)c(OC)cc(OC)c1C2=O | % | 0
NC(N)=Nc1nc(CSCCC(N)=NS(N)(=O)=O)cs1 | % | 0
